From: PubChem BioAssay (NCI)

# experiment description: NCI Yeast Anticancer Drug Screen. Data for the sgs1 mgt1 strain (AID 161);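 note: 0% = growth of cultures given vehicle only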
# assay setup: S. cerevisiae sgs1 mgt1 strain, at 50.0 µM, stronger effect = higher value
About 79,000 compounds went through this panel and 15% of them were active in at least one assay; those are over-represented in the sample as a whole.
Binary call on growth inhibition: Met from 70% upward, Not met beneath that.

# example entries with known answers
{"columns": ["molecule", "answer label"],
 "data": [
  ["COc1ccc(C(c2cc3c(cc2O)OCO3)N2CCOCC2)cc1OC (stereo not drawn)", "Met"],
  ["Cc1ccc(C(=Nc2ccccc2)N=P(c2ccccc2)(c2ccccc2)c2ccccc2)cc1", "Met"],
  ["O=C1Nc2ccccc2NC(=O)C(=C(c2ccccc2)c2ccccc2)C1=C(c1ccccc1)c1ccccc1", "Not met"]
]}

Hi, just wondering whether Cc1cc([N+](=O)[O-])cc(Cl)c1O shows growth inhibition of 70% or higher.
Met

Hi, just wondering whether CS(=O)(=O)c1snc(N)c1C#N shows growth inhibition of 70% or higher.
Not met

Hi, just wondering whether COc1ccc(/C=c2\sc3nnc(CCC(=O)Nc4cccc(C(F)(F)F)c4)n3c2=O)cc1 shows growth inhibition of 70% or higher.
Not met

Hi, just wondering whether N#Cc1snc2sc(=O)sc12 shows growth inhibition of 70% or higher.
Met

Hi, just wondering whether CNc1ccc(N)cc1 shows growth inhibition of 70% or higher.
Not met

Hi, just wondering whether CCCC(O)C[N+](=O)[O-] (stereo not drawn) shows growth inhibition of 70% or higher.
Not met

Hi, just wondering whether CC1OC2CC(=O)OC2C2=C1C(=O)c1c(O)cccc1C2=O (stereo not drawn) shows growth inhibition of 70% or higher.
Met

Hi, just wondering whether O=[N+]([O-])c1cc(I)c(O)c(/C=N/NS(=O)(=O)c2ccc(Cl)cc2)c1 shows growth inhibition of 70% or higher.
Met

----------
# experiment description: NCI Yeast Anticancer Drug Screen. Data for the bub3 strain (AID 167)
# assay setup: S. cerevisiae bub3 mutant strain, at 50.0 µM (retest, dose inferred, filed as 5.0), stronger effect = higher value
This is part of a sample that, as a whole, favours compounds with a hit. Of some 79,000 tested, about 15% had one in any assay.
Class membership depends on growth inhibition alone; the intervals are label 0 (below 30%), label 1 (30% to below 80%), label 2 (80% or more)

# example entries with known answers
{"columns": ["molecule", "answer label"],
 "data": [
  ["CC1CC(C)C(C)C(CO)C1 (stereo unspecified)", "label 0"],
  ["Cc1ccc2c(c1)C(=O)N(CC[P+](c1ccccc1)(c1ccccc1)c1ccccc1)C2=O", "label 2"],
  ["O=NN(CCCl)C(=O)Oc1cc(Cl)c(Cl)cc1Cl", "label 2"],
  ["[Cl][Pt+2]([Cl])([Cl])[Cl].[NH-]CC1(C[NH-])CCCC1", "label 2"],
  ["O=C(CCN(Cc1ccccc1)Cc1ccccc1)c1ccc2ccccc2c1", "label 1"],
  ["c1ccc(-c2cnc3nc4ccccc4nc3n2)cc1", "label 1"],
  ["COC(=O)c1ccc(OC)cc1", "label 0"],
  ["COc1cccnc1/C=N/NC(N)=S", "label 1"],
  ["CCCCC(CC(=O)O)c1ccc(Cl)cc1 (stereo unspecified)", "label 0"],
  ["CN(C)c1ccc(/C=C(\\C#N)c2c(F)cccc2F)cc1", "label 0"]
]}

For N#[N+]c1ccc2c(S(=O)(=O)Oc3ccc(C(=O)c4ccccc4)c(OS(=O)(=O)c4cccc5c([O-])c([N+]#N)ccc45)c3)cccc2c1[O-] , which growth inhibition bin applies?
label 1

For N=C(N)SC1c2ccccc2-c2cc([N+](=O)[O-])ccc21 (stereo unspecified) , which growth inhibition bin applies?
label 2

For Nc1ccc(/C=C/c2ccccc2)cc1 , which growth inhibition bin applies?
label 1

For N#Cc1c(Cl)nc2ccccc2c1N=[N+]=[N-] , which growth inhibition bin applies?
label 0

For CCCCCCCCCC(=O)NN=C(C)C , which growth inhibition bin applies?
label 1

----------
# experiment description: NCI Yeast Anticancer Drug Screen. Data for the cln2 rad14 strain (AID 165);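 note: 0% = growth equal to vehicle treated cultures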
# assay setup: S. cerevisiae cln2 rad14 strain, at 5.0 µM (retest, dose inferred, filed as 0.5), stronger effect = higher value
# Method: Growth inhibition of yeast strains with defined genetic alterations is measured as a screen for potential anti-cancer activity. Selected strains with alterations in DNA damage repair or cell cycle control were exposed to compounds and growth inhibition was measured relative to vehicle treated controls. The strain used in this assay is cln2 rad14
This is part of a sample that, as a whole, favours compounds with a hit. Of some 79,000 tested, about 15% had one in any assay.
measured quantity: growth inhibition (%)
Output spec: scalar in %, unitless text.

Below are worked cases with known answers.
{"columns": ["compound", "units text", "reported result"],
 "data": [
  ["CN(C)c1ccc(C2ON=C(c3ccccc3)N2C23CC4CC(CC(C4)C2)C3)cc1 (centres undefined)", "%", 8],
  ["COCCN1C(=O)C2c3[nH]c4ccccc4c3C3CCC(C(C)(C)C)CC3C2C1=O (centres undefined)", "%", -21],
  ["CC(=O)/C=C1\\C(=O)Nc2ccccc21", "%", 26],
  ["Cc1ccc(/C=C2\\CCCc3ccccc3C2=O)cc1", "%", -11],
  ["N=C(N)c1ccc(N=Nc2cc(/C=C/c3ccccc3)ccc2O)cc1", "%", 3],
  ["CCN(CC)CCCNc1c(O)cc(C)c2sc3ccccc3c(=O)c12", "%", 12]
]}

So for Nc1ccc(Cc2ccc(N)cc2[N+](=O)[O-])c([N+](=O)[O-])c1 , the logged growth inhibition turned out to be 5

So for Oc1ccc(-c2ccccc2)cc1Br , the logged growth inhibition turned out to be -9

So for COC(=O)c1ccc(OC)cc1 , the logged growth inhibition turned out to be -1

So for C[CH2][Sn]([CH2]C)([O]C(=O)c1c(F)cccc1F)[O][Sn]([CH2]C)([CH2]C)[O]C(=O)c1c(F)cccc1F , the logged growth inhibition turned out to be 28

So for Cc1ccc2nc(-[n+]3cc4ccccc4cc3C)ccc2c1 , the logged growth inhibition turned out to be -1

So for O=C(C(=O)c1ccncc1)c1ccccc1 , the logged growth inhibition turned out to be -59

So for Cc1c2c(c(O)c3c(O)cccc13)C(=O)C1(O)C(=O)C(C(N)=O)C(O)C(N(C)C)C1C2 (centres undefined) , the logged growth inhibition turned out to be 66

----------
# experiment description: NCI Yeast Anticancer Drug Screen. Data for the mlh1 rad18 strain (AID 175)
# assay setup: S. cerevisiae mlh1 rad18 strain growth inhibition; at 5.0 µM (retest, dose inferred, filed as 0.5); stronger effect = higher value
About 79,000 compounds went through this panel and 15% of them were active in at least one assay; those are over-represented in the sample as a whole.
measured quantity: growth inhibition (%)
Output spec: scalar in %, unitless text.

Below are worked cases with known answers.
{"columns": ["molecule", "measured quantity", "reported result"],
 "data": [
  ["NC1=CC(=O)c2ccccc2C1=O", "growth inhibition", 31],
  ["c1cc(C2=NCCN2)ccc1Nc1ccc(-c2cc3ccc(C4=NCCN4)cc3[nH]2)cc1", "growth inhibition", 99],
  ["CN(C)c1ccc(C2C=C(c3ccccc3)Oc3ccccc32)cc1 (stereo not given)", "growth inhibition", 95],
  ["CCc1ccccc1NC(=O)C1=C(C)NC(C)=C(C(=O)Nc2c(CC)cccc2CC)C1c1ccc2c(c1)OCO2 (stereo not given)", "growth inhibition", 28],
  ["N#C/C(=C\\c1c(Cl)cccc1Cl)c1nc2ccccc2[nH]1", "growth inhibition", 42]
]}

So for CC(C)(C)c1ccc(CN2CCN(C(c3ccccc3)c3ccc(Cl)cc3)CC2)cc1 (stereo not given) , the logged growth inhibition turned out to be 35

So for Oc1ccc2ccc3ccccc3c2c1 , the logged growth inhibition turned out to be 2

So for S=C(NC(=S)Nc1ccc(Cl)cc1)Nc1ccc(Cl)cc1 , the logged growth inhibition turned out to be 20

So for O=S(=O)(Nc1ccc2ccccc2c1)c1ccccc1 , the logged growth inhibition turned out to be -18

So for C[n+]1c(/C=C/c2ccc([N+](=O)[O-])cc2)ccc2ccccc21 , the logged growth inhibition turned out to be 16

So for Cc1ccc(S(=O)(=O)Nc2ccccc2Cl)cc1 , the logged growth inhibition turned out to be 13

So for CCOC(=O)C(C(=O)OCC)C(=O)c1ccccc1C(=O)c1ccccc1 , the logged growth inhibition turned out to be 1

So for C=C1C(=O)OC2C/C(C)=C/CC/C(C)=C/CCC3(COC(C)=O)OC3CC12 (stereo not given) , the logged growth inhibition turned out to be 37

So for O=S(=O)(Cl)c1ccc(Br)cc1 , the logged growth inhibition turned out to be 28

So for CC(=O)OCC(=O)[C@@]1(O)[C@H](C)C[C@H]2[C@@H]3C=C(C)C4=Cc5c(cnn5-c5ccccc5)C[C@]4(C)[C@@]3(F)[C@@H](O)C[C@@]21C , the logged growth inhibition turned out to be 46

So for COc1cc2oc(-c3ccc(O)cc3O)c(CC=C(C)C)c(=O)c2c(O)c1/C=C/C(C)C , the logged growth inhibition turned out to be 9

So for Cn1cc(NC(=O)c2cc(NC(=O)CCCCCCCCC(=O)Nc3cc(C(=O)Nc4cc(C(=O)NCCC(N)N)n(C)c4)n(C)c3)cn2C)cc1C(=O)NCCC(=N)N , the logged growth inhibition turned out to be 88

So for CC(C)N(CN1C(=O)N/C(=C/c2cccc(/C=C3/NC(=O)N(CN(C(C)C)C(C)C)C3=O)c2)C1=O)C(C)C , the logged growth inhibition turned out to be 7

So for C/C(=N/Nc1ccccc1)C(=O)O , the logged growth inhibition turned out to be 28

So for CCOc1ccccc1N1C(=O)C=CC1=O , the logged growth inhibition turned out to be 42
